# assay-name: growth suppression of beta-catenin knockout HCT116, pilot screen, human colon tumor cells (AID 823);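 further: 0% = wells killed by 20 µM Hyamine and 100% = untreated DMSO cell wells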
# setup-conditions: CellTiter-Glo, 60 h, at 10 µM, active compounds read low
Inconclusive results are not listed.
Record form. Attribute: viability. Fill in for each entry.
Expressed in %, but write only the number.

For reference, reported viability for COc1ccc(CN2CCN(C(=O)c3ccco3)CC2)cc1OCc1ccccc1 stands at 88

For reference, reported viability for COc1ccccc1-c1nc(-c2ccccn2)no1 stands at 45.5

For reference, reported viability for CCOc1ccc(C(=O)Nc2cc(C)c3c(=O)oc4ccccc4c3n2)cc1 stands at 65

For reference, reported viability for Cc1nc2c3ccccc3n(CC#N)c(=O)n2n1 stands at 99.9

For reference, reported viability for CCn1nc(C(=O)OCC(=O)c2ccc3c(c2)OCCO3)c2ccccc2c1=O stands at 89.9

For reference, reported viability for CC1CCc2nn(CC(=O)N3CCCCCC3)cc2C1 (stereo not given) stands at 100

For reference, reported viability for CCOC(=O)c1nc2ccccc2s1 stands at 99.2

For reference, reported viability for O=C(c1ccc(S(=O)(=O)N2CCCC2)cc1)N1CCCc2ccccc21 stands at 95.1

For reference, reported viability for CC(=O)/C(C(=N)N1CCN(Cc2ccccc2)CC1)=C(\C)O stands at 103

For reference, reported viability for O=C(C1CC1)N1CCc2cc(Br)cc(S(=O)(=O)NCCCN3CCCC3)c21 stands at 87.6

For reference, reported viability for Cc1ccc(NC(=O)C2C3C=CC4(CN(Cc5cccnc5)C(=O)C24)O3)cc1 (stereo not given) stands at 74.4

For reference, reported viability for COc1ccc(N2C(=O)C3CCCN3C2c2ccc(Cl)cc2)cc1 (stereo not given) stands at 101

For reference, reported viability for CCCc1[nH]nc2c1C(C1CCCCC1)C(C#N)=C(N)O2 (stereo not given) stands at 12.5

For reference, reported viability for O=C(NCc1ccc(Cl)c(Cl)c1)c1ccco1 stands at 90.8

For reference, reported viability for O=C1CSC(=O)N1CC(O)COc1ccc(Cl)cc1 (stereo not given) stands at 102

====

# assay-name: RAM signaling pathway blockade in yeast – S. cerevisiae, Pdr1DBD-CYC8 efflux-inhibited sensitized strain, primary screen (AID 1298);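 further: 0% = DMSO untreated cells without growth and 100% = 10 µM 1-NA-PP1 full growth; higher means more yeast growth rescued from 5-FOA killing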
# setup-conditions: S. cerevisiae cbk1-as DSE1-URA3 strain, 5-FOA growth OD615, 2 d; at 50 µM; active compounds read high
parameter-measured: RAM network inhibition (%)
Expressed in %, but write only the number.

For reference, reported RAM network inhibition for O=C(NCCN1CCCCCC1)C1CCC(CNS(=O)(=O)c2cccc3cccnc23)CC1 (centres undefined) stands at 10

For reference, reported RAM network inhibition for c1ccc(OCCSc2ncnc3nc[nH]c23)cc1 stands at 3.23

For reference, reported RAM network inhibition for O=C1CC(C(=O)N2CCN(c3ccc(F)cc3)CC2)CN1CCc1ccccc1 (centres undefined) stands at 1.03

For reference, reported RAM network inhibition for Cc1cc(C)n(CC(=O)n2c3ccccc3c3ccccc32)n1 stands at -1.18

====

# assay-name: RAM signaling pathway blockade in yeast – S. cerevisiae, Pdr1DBD-CYC8 efflux-inhibited sensitized strain, primary screen (AID 1298);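 further: 0% = DMSO untreated cells without growth and 100% = 10 µM 1-NA-PP1 full growth; higher means more yeast growth rescued from 5-FOA killing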
# setup-conditions: S. cerevisiae cbk1-as DSE1-URA3 strain, 5-FOA growth OD615, 2 d; at 50 µM; active compounds read high
Record form. Attribute: RAM network inhibition. Fill in for each entry.
Expressed in %, but write only the number.

For reference, reported RAM network inhibition for COc1cc(C(=O)Nc2cc(-c3nc4cc(C)ccc4o3)ccc2C)cc(OC)c1OC stands at -0.15

For reference, reported RAM network inhibition for C=CC1C(N2CCOCC2)C(C)(C)S1(=O)=O (stereo not drawn) stands at -0.28

For reference, reported RAM network inhibition for O=C1C2C3C=CC(CO)(O3)C2C(=O)N1c1ccccc1-c1ccccc1 (stereo not drawn) stands at -1.89

====

# assay-name: viability gain of MRP-1-high H69AR cells under doxorubicin, pilot screen, MRP-1 activator project, CellTiter-Glo, duplicate (AID 807);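 further: compound pretreatment 18-22 h then 72 h combined with doxorubicin; 0% = doxorubicin alone and 100% = vehicle without doxorubicin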
# setup-conditions: H69AR viability with doxorubicin, CellTiter-Glo luminescence; at 10 µM; active compounds read high
Record form. Attribute: viability increase. Fill in for each entry.
Expressed in %, but write only the number.

For reference, reported viability increase for O=C(Nc1cccc(OC(F)(F)F)c1)c1ccc(Br)o1 stands at 1.31

For reference, reported viability increase for Cn1c(NC(=O)C2CC2)cc(=O)n(C)c1=O stands at -0.62

For reference, reported viability increase for CCN1CCN(c2cc(C)c3cc(NC(=O)c4cnccn4)ccc3n2)CC1 stands at -3.82

For reference, reported viability increase for Cc1ccc(-c2nc(CSCC(=O)N3CCN(c4ccccn4)CC3)c(C)o2)cc1 stands at -2.65

For reference, reported viability increase for Cc1ccc(-c2nc3ncccc3o2)cc1NC(=O)Cc1ccc(Cl)cc1 stands at -4.9

For reference, reported viability increase for COc1ccc(C(=O)Nc2ccc(S(=O)(=O)Nc3cc(C)nc(C)n3)cc2)c(OC)c1 stands at 0.28

For reference, reported viability increase for COC(=O)c1cn(NC(=O)CC2CCCCC2)c(=O)c2ccccc12 stands at 0.01

For reference, reported viability increase for CC(=O)N=C1SC2CS(=O)(=O)CC2N1c1c(Cl)cccc1Cl (centres undefined) stands at -1.41

For reference, reported viability increase for CCCCCn1c(CNC(=O)CCC)nc2ccccc21 stands at -2.97

For reference, reported viability increase for Cc1cc(C)cc(N(CC(=O)N2CCn3c2nc2ccccc23)S(=O)(=O)c2c(C)noc2C)c1 stands at -4.06

For reference, reported viability increase for COc1ccc(OC)c(C2NC(=O)NC(C)=C2C(=O)Nc2ccc(C)cc2C)c1 (centres undefined) stands at 0.67

For reference, reported viability increase for Cc1csc2nc(CNC(=O)CCC(=O)O)cn12 stands at -0.98

For reference, reported viability increase for CN(C)C=NC(=O)/C(C#N)=C1\CCc2ccccc2N1 stands at -2.2

For reference, reported viability increase for Cc1nc(CNS(=O)(=O)c2ccc3c(c2)CCCC3)cs1 stands at -1.72

For reference, reported viability increase for Cc1cc2c(cc(C(=O)N3CCC(C(=O)NC4CCCC4)CC3)n2Cc2c(F)cccc2Cl)o1 stands at -1.51

For reference, reported viability increase for CCOC(=O)N1CCC(N2Cc3cccc(C(=O)Nc4ccc(OC)c(OC)c4)c3C2=O)CC1 stands at -3.99

For reference, reported viability increase for CCOC(=O)c1ccc(N2C(=O)CC(N3CCN(Cc4ccccc4)CC3)C2=O)cc1 (centres undefined) stands at 0.7

For reference, reported viability increase for COc1ccc(OC)c(N(CC(=O)Nc2ccc3c(c2)OCCO3)S(C)(=O)=O)c1 stands at -2.52

For reference, reported viability increase for CN1C(=O)CC(N2CCN(c3ncccn3)CC2)C1=O (centres undefined) stands at 0.31

For reference, reported viability increase for COc1cc(OC)cc(OCC(O)Cn2cnc3cc(C)c(C)cc32)c1 (centres undefined) stands at -5.24

For reference, reported viability increase for Nc1c(NCc2ccccc2F)c(=O)[nH]c(=O)n1Cc1ccccc1 stands at -1.53

For reference, reported viability increase for COc1cc2c(c(O)c1OC)C(=O)C(OC)CCC2 (centres undefined) stands at -0.47

For reference, reported viability increase for CCOC(=O)CC(=O)Nc1ccc(Br)cc1C(=O)O stands at 1.24

For reference, reported viability increase for Cc1nn(C)c(C)c1S(=O)(=O)N(CC(=O)Nc1nccs1)c1ccc(C(C)C)cc1 stands at -4.04

For reference, reported viability increase for CCN1CCN(CC(=O)Nc2cccc(C)c2C)C(=O)C1=O stands at -0.73

For reference, reported viability increase for Cc1ccccc1NS(=O)(=O)c1cccc(-c2nnc(-c3ccccc3)o2)c1 stands at -0.75

For reference, reported viability increase for N#CC1=C2C=CC=CN2CC1=O stands at -2.42

For reference, reported viability increase for O=C(CC1NCCNC1=O)OCCCc1ccccc1 (centres undefined) stands at 0.07

For reference, reported viability increase for O=C1CN(C(=O)CN2CCOCC2)C(c2ccccc2)c2cc(Br)ccc2N1 (centres undefined) stands at -3.48

For reference, reported viability increase for CCC(Sc1nc(=O)cc(N)n1CCc1ccccc1)C(=O)Nc1cc(C)on1 (centres undefined) stands at -1.78

For reference, reported viability increase for COC(=O)C1=CN(C)C=C(C(=O)OC)C1c1ccsc1 stands at -0.22

For reference, reported viability increase for O=C(CSc1nc2cc(Cl)ccc2s1)c1ccco1 stands at -4.44

For reference, reported viability increase for C=C1CC2C=C(NC(C)=O)CC(C1)C2 (centres undefined) stands at -0.27

For reference, reported viability increase for O=C1c2ccccc2C(Nc2ccc3c(c2)OCCO3)N1c1ccc(Cl)cn1 (centres undefined) stands at 1.76

For reference, reported viability increase for CC(=O)OC(/C(O)=C(\C#N)c1nc2ccccc2[nH]1)c1ccccc1 (centres undefined) stands at -0.98

For reference, reported viability increase for N#CC1=C(SCC(N)=O)NC(=O)CC1c1ccccc1Cl (centres undefined) stands at -2.43

For reference, reported viability increase for O=C(NCc1cccnc1)C1CC(=O)N(c2ccc(F)cc2)C1 (centres undefined) stands at 1.27

For reference, reported viability increase for CCOC(=O)N1CCC(Nc2c(OCC)c(=O)c2=O)CC1 stands at -0.57

For reference, reported viability increase for CN(CCNC(=O)C1(O)c2ccccc2NC(=O)N1c1ccccc1)Cc1ccccc1 (centres undefined) stands at -2.03
